- System: ATP;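 note: ATP exposure 15 min at 22 °C before imaging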
- Protocol text: switch fluorescence ratio, 500 uM ATP over buffer (Cy3 cluster intensity, sum of 5 cycles each) (fold (ratio)); higher = stronger signal-on switching upon ATP binding; sequences stand for … in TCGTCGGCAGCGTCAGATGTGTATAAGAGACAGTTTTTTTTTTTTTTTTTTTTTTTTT…TC
- Conditions used: aptamer strand: ATP DNA aptamer (quencher-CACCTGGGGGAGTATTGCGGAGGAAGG + anchor), 100 nM annealed; ATP concentration: 500 uM
Consider the following sequences; for each one, report its switch fluorescence ratio.
Just the number, please.

Reported switch fluorescence ratio for ATP, given AGTAGGGTGT ?
0.968

Query switch fluorescence ratio on ATP for GAGGAAAGGC
0.999

Fill in the recorded switch fluorescence ratio for this sequence, with ATP as test system: GAAGGATAGC
0.998

Field: switch fluorescence ratio (ATP). Entry: TTCGGTAAAT
1.03

Checklist item: switch fluorescence ratio tested on ATP, entry TACGTTGACC , value?;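 note: ATP exposure 15 min at 22 °C before imaging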
1.26

Form field: switch fluorescence ratio recorded for GAATTACGGC with ATP (enter value)
1.04

Form field - read-out: switch fluorescence ratio; system: ATP; submitted item: ATTAAATAG;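 note: ATP exposure 15 min at 22 °C before imaging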
0.98

Param readout = switch fluorescence ratio; param system = ATP; param query = ACTATGAGCT ; response: value;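 note: ATP exposure 15 min at 22 °C before imaging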
1.04
